# Test System: COVID-19 WT Mpro (Severe acute respiratory syndrome coronavirus 2)
# Construct: The C-His6-tagged COVID-19 WT Mpro (NC_045512); His6 (C)
# Test Protocol: biochemical
# Particulars: WT Mpro 25 nM, substrate 25 μM, 30 min pre-incubation; several values in a cell = repeat determinations
Measure Name: pIC50
Give bare numbers, as −log10 of the molar value.

CC(C)(C)[C@H](NC(=O)c1cn2ccccc2n1)C(=O)N1C[C@H]2[C@@H]([C@H]1C(=O)N[C@H](C#N)C[C@@H]1CCNC1=O)C2(C)C [Compound 31] = 5.56

Quick one: give me pIC50 for each item below, same order please.
1. COC(C)(C)C(=O)N[C@H](C(=O)N1C[C@H]2[C@@H]([C@H]1C(=O)N[C@H](C#N)C[C@@H]1CCNC1=O)C2(C)C)C(C)(C)C [Compound 25]
2. CC(C)(C)[C@H](NC(=O)c1ccc2[nH]ncc2c1)C(=O)N1C[C@H]2[C@@H]([C@H]1C(=O)N[C@H](C#N)C[C@@H]1CCNC1=O)C2(C)C [Compound 24]
3. CC(C)(C)OC(=O)N1[C@@H](C(=O)N[C@H](C(=O)N2C[C@H]3[C@@H]([C@H]2C(=O)N[C@H](C#N)C[C@@H]2CCNC2=O)C3(C)C)C(C)(C)C)C[C@H]2CCCC[C@H]21 [Compound 37]
4. CC1(C)[C@@H]2[C@@H](C(=O)N[C@H](C#N)C[C@@H]3CCNC3=O)N(C(=O)[C@@H](NC(=O)C(F)(F)F)C34CC(C3)C4)C[C@@H]21 [Compound 50]

Response given:
1. 6.79
2. 6.84
3. 5.67
4. 7.22

Recorded values, source patent US11760722B2.
